# Target Or System: T1, c-erbB-2 ECD with a Ser-Gly-His6 C-terminal fusion (UniProt P04626 23-652)
# T1 construct: extracellular domain; Expressed from CHO cells, IMAC purified; coupled to a CM5 chip, coated on plates, or biotinylated with NHS-LC-biotin; also called c-erbB-2 extracellular domain; biotinylated c-erbB-2 ECD
# Protocol Details: SPR BIAcore
# pKd per entry
For clarity, pKd is expressed as the negative log10 of concentration in mol/L.

Worked cases, answers included:
Q. I have this binder here, C6ML3-18 (scFv) scFv: QVQLLQSGAELKKPGESLKISCKGSGYSFTSYWIAWVRQMPGKGLEYMGLIYPGDSDTKYSPSFQGQVTISVDKSVSTAYLQWSSLKPSDSAVYFCARHDVGYCSSSNCAKWPEYFQHWGQGTLVTVSSGGGGSGGGGSGGGGSQSVLTQPPSVSAAPGQKVTISCSGSSSNIGNNYVSWYQQLPGTAPKLLIYGHTNRPAGVPDRFSGSKSGTSASLAISGFRSEDEADYYCASWDASLWGWVFGGGTKLTVLG , and I need its recorded pKd.
A. 8.62

Q. I have this binder here, C6ML3-25 (scFv) scFv: QVQLLQSGAELKKPGESLKISCKGSGYSFTSYWIAWVRQMPGKGLEYMGLIYPGDSDTKYSPSFQGQVTISVDKSVSTAYLQWSSLKPSDSAVYFCARHDVGYCSSSNCAKWPEYFQHWGQGTLVTVSSGGGGSGGGGSGGGGSQSVLTQPPSVSAAPGQKVTISCSGSSSNIGNNYVSWYQQLPGTAPKLLIYGHTNRPAGVPDRFSGSKSGTSASLAISGFRSEDEADYYCAAWDNRHSGWVFGGGTKLTVLG , and I need its recorded pKd.
A. 8.13

Q. I have this binder here, C6ML3-9 (scFv, template (wt) of the VH CDR3 libraries; also called C6ML3-9 (wt); C6ML-9) scFv: QVQLLQSGAELKKPGESLKISCKGSGYSFTSYWIAWVRQMPGKGLEYMGLIYPGDSDTKYSPSFQGQVTISVDKSVSTAYLQWSSLKPSDSAVYFCARHDVGYCSSSNCAKWPEYFQHWGQGTLVTVSSGGGGSGGGGSGGGGSQSVLTQPPSVSAAPGQKVTISCSGSSSNIGNNYVSWYQQLPGTAPKLLIYGHTNRPAGVPDRFSGSKSGTSASLAISGFRSEDEADYYCASWDYTLSGWVFGGGTKLTVLG , and I need its recorded pKd.
A. 9.00

Q. I have this binder here, C6ML3-5 (scFv) scFv: QVQLLQSGAELKKPGESLKISCKGSGYSFTSYWIAWVRQMPGKGLEYMGLIYPGDSDTKYSPSFQGQVTISVDKSVSTAYLQWSSLKPSDSAVYFCARHDVGYCSSSNCAKWPEYFQHWGQGTLVTVSSGGGGSGGGGSGGGGSQSVLTQPPSVSAAPGQKVTISCSGSSSNIGNNYVSWYQQLPGTAPKLLIYGHTNRPAGVPDRFSGSKSGTSASLAISGFRSEDEADYYCAAWDYSLSGWVFGGGTKLTVLG , and I need its recorded pKd.
A. 8.43

***
Q. I have this binder here, C6ML3-26 (scFv) scFv: QVQLLQSGAELKKPGESLKISCKGSGYSFTSYWIAWVRQMPGKGLEYMGLIYPGDSDTKYSPSFQGQVTISVDKSVSTAYLQWSSLKPSDSAVYFCARHDVGYCSSSNCAKWPEYFQHWGQGTLVTVSSGGGGSGGGGSGGGGSQSVLTQPPSVSAAPGQKVTISCSGSSSNIGNNYVSWYQQLPGTAPKLLIYGHTNRPAGVPDRFSGSKSGTSASLAISGFRSEDEADYYCAAWDDSRSGWVFGGGTKLTVLG , and I need its recorded pKd.
A. 8.08

src = patent US6512097
